Target: Nurr1 ligand binding domain (LBD) (Homo sapiens)
Sequence (P43354 360-595 limits assumed): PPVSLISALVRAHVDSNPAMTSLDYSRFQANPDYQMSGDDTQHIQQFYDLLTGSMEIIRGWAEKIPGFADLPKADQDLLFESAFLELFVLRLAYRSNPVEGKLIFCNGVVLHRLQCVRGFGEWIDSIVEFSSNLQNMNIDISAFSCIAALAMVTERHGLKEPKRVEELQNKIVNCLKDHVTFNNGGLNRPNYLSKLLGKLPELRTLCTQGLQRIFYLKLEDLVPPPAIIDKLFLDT
readout name: Kd (µM)
Give bare numbers, in µM.

Could you share what Kd was measured for CCN(CC)Cc1cc(Nc2ccnc3cc(Cl)ccc23)ccc1O [amodiaquine, reference compound] , tested on Nurr1 ligand binding domain (LBD) (Homo sapiens)? 8
